All values here come from patent US20210403506A1.

Reported EC50 (µM), activation of Tango CMKLR1-bla U2OS cells values are given for each entry in this list.
# target: T1, human Chemokine like receptor 1 (human, UniProt Q99788 1-373)
# T1 sequence (looked up): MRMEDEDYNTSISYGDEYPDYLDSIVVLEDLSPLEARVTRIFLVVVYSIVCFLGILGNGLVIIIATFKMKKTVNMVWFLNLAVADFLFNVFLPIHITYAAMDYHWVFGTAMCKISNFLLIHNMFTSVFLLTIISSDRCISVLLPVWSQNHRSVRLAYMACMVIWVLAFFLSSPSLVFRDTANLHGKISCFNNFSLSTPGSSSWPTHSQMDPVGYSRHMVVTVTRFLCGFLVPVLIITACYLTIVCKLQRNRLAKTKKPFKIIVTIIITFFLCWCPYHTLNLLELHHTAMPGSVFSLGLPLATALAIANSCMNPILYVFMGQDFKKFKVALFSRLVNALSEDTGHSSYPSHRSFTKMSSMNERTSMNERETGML
# testDescription: cell-based or functional assay
Square brackets hold non-standard residues; d marks the D form. Ends that are not written are not given here. 2Nal = N[C@@H](Cc1ccc2ccccc2c1)C(=O)O; Tic = O=C(O)[C@@H]1Cc2ccccc2CN1; NMeL = CN[C@@H](CC(C)C)C(=O)O; NMeS = CN[C@@H](CO)C(=O)O; Thz = O=C(O)[C@@H]1CSCN1
measuredParameter: EC50 (µM), activation of Tango CMKLR1-bla U2OS cells

{"columns": ["binder", "testResult"],
 "data": [
  ["[dY]FLP[dS]QF[dA][Tic][NMeS]-OH (N-terminus assumed; SMILES CC(C)C[C@H](NC(=O)[C@H](Cc1ccccc1)NC(=O)[C@H](N)Cc1ccc(O)cc1)C(=O)N1CCC[C@H]1C(=O)N[C@H](CO)C(=O)N[C@@H](CCC(N)=O)C(=O)N[C@@H](Cc1ccccc1)C(=O)N[C@H](C)C(=O)N1Cc2ccccc2C[C@H]1C(=O)N(C)[C@@H](CO)C(=O)O) [YW-110]", 0.013],
  ["[dY]F[NMeL][Thz][dS]QF[dA][Tic]S-OH (N-terminus assumed; SMILES CC(C)C[C@@H](C(=O)N1CSC[C@H]1C(=O)N[C@H](CO)C(=O)N[C@@H](CCC(N)=O)C(=O)N[C@@H](Cc1ccccc1)C(=O)N[C@H](C)C(=O)N1Cc2ccccc2C[C@H]1C(=O)N[C@@H](CO)C(=O)O)N(C)C(=O)[C@H](Cc1ccccc1)NC(=O)[C@H](N)Cc1ccc(O)cc1) [YW-121]", 0.0007],
  ["[dY][2Nal][NMeL]P[dS]QF[dA][Tic]S [YW-200]", 0.019]
]}
